tested on: Saccharomyces cerevisiae; assay: protein stability index of tFT-peptide fusion in deletion strain of DAS1 (PSI (0-1 scale)); higher = more stable (slower turnover)
Measured endpoint: protein stability index
// return a plain number; no unit text

Examples from the recorded data:
Item sequence	protein stability index
KKHKKGQKQKTN	0.619
KKHKKGQKQRIN	0.642
KKHKKGQKQVIN	0.629

What does the data say about its protein stability index? Entry: `LKIKRQKMNHQN`
0.683

* * *

We begin with a simple list: items and their reported protein stability index.
system: Saccharomyces cerevisiae; assay: protein stability index of tFT-peptide fusion (C-terminal peptide) (PSI (0-1 scale)); higher = more stable (slower turnover); settings: genetic background: wild type; temperature: 30 C
// return a plain number; no unit text

What does the data say about its protein stability index? Entry: `PRLPSPPGAPPP`
0.726

What does the data say about its protein stability index? Entry: `SRPLANYARCSS`
0.639

What does the data say about its protein stability index? Entry: `RACSLWVSVVQP`
0.679

What does the data say about its protein stability index? Entry: `SVSLPPSLPFLL`
0.764

What does the data say about its protein stability index? Entry: `PPFLPPSPPAPP`
0.691

What does the data say about its protein stability index? Entry: `CGIAGVKSLGLC`
0.717

What does the data say about its protein stability index? Entry: `ESYRTYNSIQVY`
0.518

* * *

test system: Saccharomyces cerevisiae; experiment: protein stability index of tFT-peptide fusion (C-terminal peptide) (PSI (0-1 scale)); higher = more stable (slower turnover); settings: genetic background: cdc34-1; temperature: 37 C
Each record gets a class by protein stability index: lo (below 0.4), mid (0.4 to below 0.5), hi (0.5 or more)

Item sequence	Cat
HLAQYSSSLHLM	hi
VLLCASPMLAVV	lo
SCFDRQIFVPVC	lo
AFLLVLFCCVSC	lo

Which class holds `FTLFFVASVLDL` ?
mid

Which class holds `VFVMRDGFLRKV` ?
hi

Which class holds `ARTWVVLLICGH` ?
mid

Which class holds `APLLPPALALTC` ?
hi

Which class holds `APPSFPPLLLLS` ?
hi

Which class holds `FSFPIIFFGMFL` ?
mid

Which class holds `ARGVAAAFVSGF` ?
hi

Which class holds `SLARLRRICFNT` ?
hi

Which class holds `YCILGSYRLCVG` ?
lo

Which class holds `CFLSWSLRFFIL` ?
lo

Which class holds `LSPLSPLLFRLI` ?
mid

Which class holds `LAPPFPVVLTPA` ?
lo

* * *

test system: Saccharomyces cerevisiae; assay: protein stability index of tFT-peptide fusion (C-terminal peptide) (PSI (0-1 scale)); higher = more stable (slower turnover); conditions: genetic background: wild type; temperature: 30 C
We begin with a simple list: items and their reported protein stability index.
// return a plain number; no unit text

Item sequence	Target desc	protein stability index
PRCCDIEIESGR	Saccharomyces cerevisiae	0.68
NTNITHHSVKLR	Saccharomyces cerevisiae	0.727
RVFGWIEVEVEG	Saccharomyces cerevisiae	0.489
WSTGEKMALHGR	Saccharomyces cerevisiae	0.787
SFPPPHPPPPLP	Saccharomyces cerevisiae	0.7

Query protein stability index on Saccharomyces cerevisiae for `GVCGVSKGRRHR`
0.701

* * *

test system: Saccharomyces cerevisiae; test: protein stability index of tFT-peptide fusion (C-terminal peptide) (PSI (0-1 scale)); higher = more stable (slower turnover); conditions: genetic background: wild type; temperature: 30 C
Measured endpoint: protein stability index
// return a plain number; no unit text

Item sequence	Target desc	Measured endpoint	Measured
APGPPPLPHPPT	Saccharomyces cerevisiae	protein stability index	0.717
CCVKRARVPHFV	Saccharomyces cerevisiae	protein stability index	0.616
GSCPPHPALPHL	Saccharomyces cerevisiae	protein stability index	0.713
PPTPHPSTPALP	Saccharomyces cerevisiae	protein stability index	0.714
VFPRVFGFGVCI	Saccharomyces cerevisiae	protein stability index	0.716

What does the data say about its protein stability index? Entry: `AVRGCGVGSGWR`
0.713

What does the data say about its protein stability index? Entry: `IWPGASLALLTS`
0.606

What does the data say about its protein stability index? Entry: `LGGVKATGLGQL`
0.686

What does the data say about its protein stability index? Entry: `SYGTIGYLATSF`
0.687

What does the data say about its protein stability index? Entry: `GGCGSAGRGQRG`
0.697

What does the data say about its protein stability index? Entry: `PPPPYARHTALI`
0.691

What does the data say about its protein stability index? Entry: `VSDVIPRSRCVR`
0.688

What does the data say about its protein stability index? Entry: `PPGSPGPRTPPP`
0.708

What does the data say about its protein stability index? Entry: `PPWPLVVQPSPP`
0.703

What does the data say about its protein stability index? Entry: `QGPHISQYRTHR`
0.706

* * *

test system: Saccharomyces cerevisiae; test: protein stability index of tFT-peptide fusion (C-terminal peptide) (PSI (0-1 scale)); higher = more stable (slower turnover); settings: genetic background: wild type; temperature: 30 C
We begin with a simple list: items and their reported protein stability index.

Examples from the recorded data:
Item sequence	protein stability index
KKNKKPKKQNNK	0.681
SDTPTHVLGPPY	0.716
PPPSPPRPLLPV	0.701
KGIDTYVLQRNE	0.715
PSGSNPPRTIPT	0.713

Alright, here's another sequence for you.
What does the data say about its protein stability index? Entry: `AEVRRQEGTVGV`
0.707

* * *

We begin with a simple list: items and their reported protein stability index.
system: Saccharomyces cerevisiae; experiment: protein stability index of tFT-peptide fusion in deletion strain of DOA10 (PSI (0-1 scale)); higher = more stable (slower turnover)
// return a plain number; no unit text

Item sequence	protein stability index
CLVSLPILLYFR	0.597
CLVSLPILLFFP	0.588
GLYMCSEGCWFR	0.706

What does the data say about its protein stability index? Entry: `RVTGLDAIYFRI`
0.683

What does the data say about its protein stability index? Entry: `RSLRVLLPTYFR`
0.664

What does the data say about its protein stability index? Entry: `GLYMCSVGCWIR`
0.402

What does the data say about its protein stability index? Entry: `AITLPMCPLLLRR`
0.673

What does the data say about its protein stability index? Entry: `RVERLDAIYFRI`
0.682

What does the data say about its protein stability index? Entry: `AITLPMCPLLLRV`
0.334

What does the data say about its protein stability index? Entry: `GLYMCSVGCMFR`
0.636

What does the data say about its protein stability index? Entry: `RVLRLDAIYFRI`
0.666

What does the data say about its protein stability index? Entry: `AITLPMCPLLLL`
0.625

What does the data say about its protein stability index? Entry: `WITLPMCPLLLR`
0.606

What does the data say about its protein stability index? Entry: `GLYMCSVGCWFRT`
0.554

What does the data say about its protein stability index? Entry: `RVTRLDAIYNRI`
0.738

* * *

We begin with a simple list: items and their reported protein stability index.
test system: Saccharomyces cerevisiae; assay: protein stability index of tFT-peptide fusion (C-terminal peptide) (PSI (0-1 scale)); higher = more stable (slower turnover); conditions: genetic background: cdc53-1; temperature: 37 C
// return a plain number; no unit text

Examples from the recorded data:
Item sequence	Measured
SFFYFVFYYLSF	0.17
RGAVLLPSLWVV	0.704
PHFDLLLCLSLN	0.753

What does the data say about its protein stability index? Entry: `IKRLKEVARHVS`
0.706

What does the data say about its protein stability index? Entry: `FFVEKRVFFGII`
0.733

* * *

We begin with a simple list: items and their reported protein stability index.
tested on: Saccharomyces cerevisiae; test: protein stability index of tFT-peptide fusion (C-terminal peptide) (PSI (0-1 scale)); higher = more stable (slower turnover); conditions: genetic background: wild type; temperature: 37 C

Examples from the recorded data:
Item sequence	Target desc	Measured endpoint	Measured
AAVQVCVLLLLL	Saccharomyces cerevisiae	protein stability index	0.497
YRNVLLVLNYWS	Saccharomyces cerevisiae	protein stability index	0.51

Query protein stability index on Saccharomyces cerevisiae for `WLPFFPLSLRGV`
0.5

Query protein stability index on Saccharomyces cerevisiae for `WALWGFVFWDWW`
0.501

Query protein stability index on Saccharomyces cerevisiae for `LWCLVWGGVWGV`
0.508

* * *

We begin with a simple list: items and their reported protein stability index.
test system: Saccharomyces cerevisiae; experiment: protein stability index of tFT-peptide fusion (C-terminal peptide) (PSI (0-1 scale)); higher = more stable (slower turnover); conditions: genetic background: cdc53-1; temperature: 37 C
// return a plain number; no unit text

Item sequence	Measured endpoint	Measured
LFFFLFSLLIFF	protein stability index	0.25
CLLDVVMVVERG	protein stability index	0.432
RDASLLFHFFVC	protein stability index	0.727
FLWAVSLCRSLV	protein stability index	0.655
KLKDLTRIKIFR	protein stability index	0.714

Query protein stability index on Saccharomyces cerevisiae for `VWICPTLFLLFS`
0.509

Query protein stability index on Saccharomyces cerevisiae for `TLSRTPVSPSAP`
0.738

Query protein stability index on Saccharomyces cerevisiae for `GLLAFVCISHTS`
0.542

Query protein stability index on Saccharomyces cerevisiae for `GQSRLVADLRQV`
0.693

Query protein stability index on Saccharomyces cerevisiae for `LLLHFMFSIFWF`
0.375

Query protein stability index on Saccharomyces cerevisiae for `LGSYIFVVVIYF`
0.228

Query protein stability index on Saccharomyces cerevisiae for `WSWCLDVVCFTS`
0.547

Query protein stability index on Saccharomyces cerevisiae for `FRLCQRPVFLLS`
0.669

Query protein stability index on Saccharomyces cerevisiae for `VSFLVSIFVSGV`
0.246

Query protein stability index on Saccharomyces cerevisiae for `ARGVAAAFVSGF`
0.773
